System: 883617-216-R-J1-PDC tumor spheroids, viability
procedure.text: Anticancer human tumor 883617-216-R-J1-PDC patient-derived bladder carcinoma cell line growth inhibition [PI3K]
assay.setup: second compound 3.16 µM; first compound 0.001 µM; active compounds read low; spheroids with HUVEC and MSC
Classify: rule met when viability, T/C is strictly less than 20%; rule not met when viability, T/C is not.

[in] Problem: For the compound Cn1ncnc1[C@H]1c2n[nH]c(=O)c3cc(F)cc(c23)N[C@@H]1c1ccc(F)cc1 + Cc1nc(NC(=O)N2CCCC2C(N)=O)sc1-c1ccnc(C(C)(C)C(F)(F)F)c1 , is viability, T/C under 20%?
[out] rule met

[in] Problem: For the compound Cn1ncnc1[C@H]1c2n[nH]c(=O)c3cc(F)cc(c23)N[C@@H]1c1ccc(F)cc1 + CC(Nc1ncnc2nc[nH]c12)c1cc2cccc(Cl)c2c(=O)n1-c1ccccc1 , is viability, T/C under 20%?
[out] rule not met

[in] Problem: For the compound CC(=O)c1c(C)c2cnc(Nc3ccc(N4CCNCC4)cn3)nc2n(C2CCCC2)c1=O + CC(Nc1ncnc2nc[nH]c12)c1cc2cccc(Cl)c2c(=O)n1-c1ccccc1 , is viability, T/C under 20%?
[out] rule not met

[in] Problem: For the compound CC(C)n1nc(-c2ccc3oc(N)nc3c2)c2c(N)ncnc21 + CC(Nc1ncnc2nc[nH]c12)c1cc2cccc(Cl)c2c(=O)n1-c1ccccc1 , is viability, T/C under 20%?
[out] rule not met

[in] Problem: For the compound CC(=O)c1c(C)c2cnc(Nc3ccc(N4CCNCC4)cn3)nc2n(C2CCCC2)c1=O + Cc1nc(NC(=O)N2CCCC2C(N)=O)sc1-c1ccnc(C(C)(C)C(F)(F)F)c1 , is viability, T/C under 20%?
[out] rule met

[in] Problem: For the compound CC(C)n1nc(-c2ccc3oc(N)nc3c2)c2c(N)ncnc21 + Cc1nc(NC(=O)N2CCCC2C(N)=O)sc1-c1ccnc(C(C)(C)C(F)(F)F)c1 , is viability, T/C under 20%?
[out] rule met

---

System: 883617-216-R-J1-PDC tumor spheroids, viability
procedure.text: Anticancer human tumor 883617-216-R-J1-PDC cell line growth inhibition [PI3K]; active = viability on the fitted dose curve at most 10% of control; inactive = the rest;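 also: spheroids exposed to agents for 7 days before the viability read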
assay.setup: second compound 1 µM; first compound 0.0316 µM; spheroids with HUVEC and MSC
Description: Combinatorial screen of targeted agents with the PI3K inhibitors inavolisib, alpelisib, duvelisib, and copanlisib in multi-cell type tumor spheroids A high-throughput screen of multi-cell type tumor spheroids was designed to identify active combinations of targeted small molecules and PI3K pathway inhibitors. […] Compounds. […] If the clinical Cmax for an agent had not been determined, the highest concentration tested was 10 microM. […]
Tick one outcome: active, inactive

[in] Lab log entry: CC(=O)c1c(C)c2cnc(Nc3ccc(N4CCNCC4)cn3)nc2n(C2CCCC2)c1=O + Cc1nc(NC(=O)N2CCCC2C(N)=O)sc1-c1ccnc(C(C)(C)C(F)(F)F)c1 — outcome as called in the assay?
[out] inactive

[in] Lab log entry: CC1(C)CCC(Nc2ncc(C(F)(F)F)c(-c3c[nH]c4c(P(C)(C)=O)c(C#N)ccc34)n2)CN1 (stereo not drawn) + COc1c(OCCCN2CCOCC2)ccc2c3n(c(=NC(=O)c4cnc(N)nc4)nc12)CCN3 — outcome as called in the assay?
[out] active

[in] Lab log entry: CCCS(=O)(=O)Nc1ccc(F)c(C(=O)c2c[nH]c3ncc(-c4ccc(Cl)cc4)cc23)c1F + CC(Nc1ncnc2nc[nH]c12)c1cc2cccc(Cl)c2c(=O)n1-c1ccccc1 — outcome as called in the assay?
[out] inactive
